These data points were gathered from paper PMC8716824.

Experiment: Pharmacokinetics in CD-1 mice
Assay type: in vivo
Details: mouse, plasma, 30 mg/kg, single intravenous administration, read-out: Cl (clearance rate) (converted)
measured_property: clearance (L/h/kg)

C[C@@H]1CC[C@H]2[C@@H](C)C(OCc3cn(CCN4C(=O)C(=O)c5cc(F)ccc54)nn3)O[C@@H]3O[C@@]4(C)CC[C@@H]1[C@]32OO4 (some centres unmarked) [8c] :: 3.16
C[C@@H]1CC[C@H]2[C@@H](C)C(OCc3cn(CCN4C(=O)C(=O)c5ccccc54)nn3)O[C@@H]3O[C@@]4(C)CC[C@@H]1[C@]32OO4 (some centres unmarked) [8a] :: 2.31
